Reported melting point by item:
Structures can show the parent of a compound that is named as a salt.
Assay endpoint: melting point

[[record]]
compound = "CN(Cc1ccc(C2CCCCC2)cc1)c1ccc(-c2csc(N(C)Cc3ccc(C(=O)[O-])cc3)n2)cc1.[K+]"
assay_value = "240 °C"

[[record]]
compound = "CC(C)N(c1cccc(C(=O)O)c1)c1nc(-c2ccc(NC(=O)c3ccc(C4CCCCC4)cc3)cc2)cs1"
assay_value = "230 °C (dec.)"

[[record]]
compound = "O=C(O)c1ccc(Nc2nc(-c3nc4cc(OCc5ccc(Cl)c(Cl)c5)ccc4[nH]3)cs2)cc1 (as salt: hydrochloride)"
assay_value = "220 °C"

[[record]]
compound = "O=C(O)CN(c1ccc(C(=O)O)cc1)c1nc(-c2ccc(NC(=O)C3CCCCC3)cc2)cs1"
assay_value = "210 °C (dec.)"

[[record]]
compound = "O=C(O)c1ccc(N(Cc2ccc(C(F)(F)F)cc2)c2nc(-c3cc(Cl)ccc3OCc3ccccc3)cs2)cc1"
assay_value = "194 to 196 °C"

[[record]]
compound = "Cc1oc(=O)oc1COC(=O)c1ccc(CN(C)c2nc(-c3ccc(OCc4ccc(C5CCCCC5)cc4)cc3)cs2)cc1"
assay_value = "87 to 92 °C"

[[record]]
compound = "CN(c1ccc(C(=O)O)cc1)c1nc(-c2ccc(OCc3ccc(Cl)c(Cl)c3)cc2)cs1"
assay_value = "230 °C (dec.)"

[[record]]
compound = "COc1ccc(OCc2ccc(C(F)(F)F)cc2)c(-c2csc(Nc3ccc(C(=O)O)cc3OCCC3CCCCC3)n2)c1"
assay_value = "111 to 114 °C"

[[record]]
compound = "CN(Cc1ccc(C2CCCCC2)cc1)c1ccc(-c2csc(NCc3ccc(C(=O)O)cc3)n2)cc1"
assay_value = "209 °C (dec.)"

[[record]]
compound = "CC(C)CN(c1ccc(C(=O)O)cc1)c1nc(-c2ccc(NC(=O)C3CCCCC3)cc2)cs1"
assay_value = "231 to 232 °C"

[[record]]
compound = "O=C(O)c1cccc(N(CC2CCCCC2)c2nc(-c3cc(Cl)ccc3OCc3ccccc3)cs2)c1"
assay_value = "98 to 100 °C"

[[record]]
compound = "CC(C)N(c1ccc(C(=O)O)c(Cl)c1)c1nc(-c2ccc(NC(=O)c3ccc(N4CCOCC4)cc3)cc2)cs1.Cl"
assay_value = "220 °C (dec.)"

[[record]]
compound = "CN(CCc1ccc(N2CCOCC2)cc1)c1ccc(-c2csc(N(C)Cc3ccc(C(=O)O)cc3)n2)cc1"
assay_value = "212 to 213 °C"

[[record]]
compound = "CC(C)N(c1nc(-c2ccc(NC(=O)c3ccc(C4CCCCC4)cc3)cc2)cs1)c1c(F)c(F)c(C(=O)O)c(F)c1F"
assay_value = "153 to 157 °C"

[[record]]
compound = "CN(c1ccc(C(=O)O)cc1)c1nc(-c2ccc(NC(=O)c3ccc(C(C)(C)C)cc3)cc2)cs1"
assay_value = "250 °C (dec.)"


Just for reference, patent US7163952B2 is where these values come from.
